Reported EC50 values follow for various compounds
Target: human 5-HT1A receptor (Homo sapiens, UniProt P08908)
Construct: host or cells: HEK293T
Sequence (P08908 1-422): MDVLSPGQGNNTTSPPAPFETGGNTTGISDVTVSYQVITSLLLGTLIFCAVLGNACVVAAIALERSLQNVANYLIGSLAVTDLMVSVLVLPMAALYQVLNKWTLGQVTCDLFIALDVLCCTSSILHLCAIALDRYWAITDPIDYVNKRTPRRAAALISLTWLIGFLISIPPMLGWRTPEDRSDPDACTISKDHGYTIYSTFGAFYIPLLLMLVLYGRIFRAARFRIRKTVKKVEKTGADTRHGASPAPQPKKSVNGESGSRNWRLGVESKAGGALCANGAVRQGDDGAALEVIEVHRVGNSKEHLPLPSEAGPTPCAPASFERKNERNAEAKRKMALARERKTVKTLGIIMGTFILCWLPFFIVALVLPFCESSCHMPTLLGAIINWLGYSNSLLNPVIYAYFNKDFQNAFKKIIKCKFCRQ
Assay: cAMP accumulation (LANCE Ultra TR-FRET) in HEK293T cells, WT 5-HT1A
Format: cell-based
Conditions: 5-HT1A pEC50, WT receptor; cAMP accumulation, HEKt cells; mean ± SD
Write the answer as a number in nM, unit excluded.

// below: answered compounds
1) CN(C)[C@H]1CCc2c(cccc2-c2cccs2)C1 [(S)-TAT] = 23.4
2) CCCN(CCC)[C@H]1CCc2c(cccc2-c2ccccc2Cl)C1 [(S)-DCPT] = 26.3
3) CN(C)[C@H]1CCc2c(cccc2-c2ccccc2Cl)C1 [(S)-CPT] = 43.7
4) CN(C)[C@H]1CCc2c(cccc2-c2cccc3ccccc23)C1 [(S)-NAP] = 389
5) CCCN(CCC)[C@H]1CCc2c(cccc2-c2ccccc2F)C1 [(S)-DFPT] = 12.6
6) CN(C)[C@H]1CCc2c(cccc2-c2ccccc2)C1 [(S)-5-PAT] = 70.8
7) CN(C)[C@H]1CCc2c(cccc2-c2cccn2C)C1 [(S)-NMP] = 27.5
8) CN(C)[C@H]1CCc2c(cccc2-c2c(F)cccc2F)C1 = 1.74

// next item, EC50 requested
I am curious: what EC50 value has been reported for CN(C)[C@H]1CCc2c(cccc2-c2ccco2)C1 [(S)-FAT] ?
490

----------
Target: human 5-HT1D receptor (Homo sapiens, UniProt P28221)
Construct: host or cells: HEK293T
Sequence (P28221 whole entry): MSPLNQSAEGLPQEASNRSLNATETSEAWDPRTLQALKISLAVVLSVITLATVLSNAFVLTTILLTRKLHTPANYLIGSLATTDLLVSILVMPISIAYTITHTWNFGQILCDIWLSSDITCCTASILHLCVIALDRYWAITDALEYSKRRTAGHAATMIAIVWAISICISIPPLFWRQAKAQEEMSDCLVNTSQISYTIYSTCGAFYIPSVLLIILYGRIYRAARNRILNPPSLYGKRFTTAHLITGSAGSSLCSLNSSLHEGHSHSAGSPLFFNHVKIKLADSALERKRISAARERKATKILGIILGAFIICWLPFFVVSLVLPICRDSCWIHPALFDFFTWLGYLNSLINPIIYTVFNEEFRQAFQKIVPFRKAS
Test: Radioligand binding (saturation and competition), WT 5-HT1D
Details: Affinity (pKi ± SD) 5-HT1D, WT receptor; [^3H]5-CT competition; mean ± SD
Assay endpoint: pKi
API: returns pKi as number; meaning -log10 of concentration in mol/L.

// below: answered compounds
1) CN(C)[C@@H]1CCc2c(cccc2-c2ccccc2F)C1 [(R)-FPT] = 6.04
2) CCCN(CCC)[C@@H]1CCc2c(cccc2-c2ccccc2F)C1 [(R)-DFPT] = 6.97
3) CCCN(CCC)[C@@H]1CCc2c(cccc2-c2ccccc2Cl)C1 [(R)-DCPT] = 6.93
4) CN(C)[C@H]1CCc2c(cccc2-c2ccccc2Cl)C1 [(S)-CPT] = 9.35
5) CN(C)[C@@H]1CCc2c(cccc2-c2ccccc2)C1 [(R)-5-PAT] = 6.55
6) CN(C)[C@H]1CCc2c(cccc2-c2cccn2C)C1 [(S)-NMP] = 8.40
7) CCCN(CCC)[C@H]1CCc2c(cccc2-c2ccccc2F)C1 [(S)-DFPT] = 9.81
8) CN(C)[C@@H]1CCc2c(cccc2-c2cccn2C)C1 [(R)-NMP] = 6.50
9) CN(C)[C@@H]1CCc2c(cccc2-c2ccccc2Cl)C1 [(R)-CPT] = 6.38

State its pKi on human 5-HT1D receptor (Homo sapiens, UniProt P28221): CN(C)[C@H]1CCc2c(cccc2-c2ccco2)C1 [(S)-FAT]
7.93
